# Tested on: L1210 leukemia ip in BDF1 mice, survival T/C
# Test: NCI In Vivo Anticancer Drug Screen. Data for tumor model L1210 Leukemia (intraperitoneal) in B6D2F1 (BDF1) mice
# Condition Parameters: endpoint: mean survival time; dose: 100.0 mg/kg/injection; schedule: Q01DX009 (ip); vehicle: Klucel (hydroxypropylcellulose) (HPC); higher = longer survival
Inconclusive results and toxic doses are left out.
Measurement Kind: T/C

CN(/C(N)=N/[N+](=O)[O-])c1cccnc1
107 % of control
Nc1nc2[nH]c(=O)cnc2c(=O)[nH]1
111 % of control
CCOC(=O)c1ccc(O)c(NC(C)=O)c1
95 % of control
CCCOC(CCC(=O)NC(C)(C)C)CC(=O)NC(C)(C)C (centres undefined)
95 % of control
CC/C(=N\N=C(/CC)c1ccccc1)c1ccccc1
98 % of control
Cc1ccc(NC(=O)Nc2cccc(C(F)(F)F)c2)cc1C
98 % of control
CC(C)=CCC(O)(c1ccccc1)C(C)CN(C)C (centres undefined)
97 % of control
CC(C)C(O)c1c[nH]c(=O)[nH]c1=O (centres undefined)
91 % of control
Nc1nc(N)c2cc(S(=O)(=O)c3ccc4ccccc4c3)ccc2n1
91 % of control
COC(=O)CCNc1c(OC)ccc2ccccc12
101 % of control
O=[N+]([O-])c1ccc(N/N=C/c2cccnc2)cc1
92 % of control
COc1ccc(O)c(/C=N\Nc2ccccc2)c1
89 % of control
O=C(Nc1ccccc1O)c1ccc(Cl)c(Cl)c1
100 % of control
O=C(CC(CC(=O)c1ccccc1)c1ccco1)c1ccccc1
90 % of control
OCCNc1nc2ccc(Br)cc2c2ccccc12
87 % of control
Cc1ccc(COC(=O)c2ccccc2)cc1
101 % of control
CC1(C)CC(=O)c2c(cc(O)c3ccc(=O)oc23)O1
96 % of control
CCOC(=Nc1ccccc1)c1ccccc1
104 % of control
O=C(O)c1c(Cl)c(Cl)c(Cl)c(C(=O)O)c1Cl
97 % of control

Origin of the recorded values: PubChem BioAssay AID248
